src = ChEMBL document CHEMBL3098057

# ASSAYED_TARGET: Calcitonin-gene-related peptide receptor, CALCRL/RAMP1 (Homo sapiens, UniProt O60894+Q16602)
# Sequence (O60894 whole entry): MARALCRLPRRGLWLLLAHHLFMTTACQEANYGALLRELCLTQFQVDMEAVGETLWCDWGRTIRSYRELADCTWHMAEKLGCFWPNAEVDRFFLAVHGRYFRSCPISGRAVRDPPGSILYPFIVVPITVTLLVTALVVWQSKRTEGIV
# Sequence (Q16602 whole entry): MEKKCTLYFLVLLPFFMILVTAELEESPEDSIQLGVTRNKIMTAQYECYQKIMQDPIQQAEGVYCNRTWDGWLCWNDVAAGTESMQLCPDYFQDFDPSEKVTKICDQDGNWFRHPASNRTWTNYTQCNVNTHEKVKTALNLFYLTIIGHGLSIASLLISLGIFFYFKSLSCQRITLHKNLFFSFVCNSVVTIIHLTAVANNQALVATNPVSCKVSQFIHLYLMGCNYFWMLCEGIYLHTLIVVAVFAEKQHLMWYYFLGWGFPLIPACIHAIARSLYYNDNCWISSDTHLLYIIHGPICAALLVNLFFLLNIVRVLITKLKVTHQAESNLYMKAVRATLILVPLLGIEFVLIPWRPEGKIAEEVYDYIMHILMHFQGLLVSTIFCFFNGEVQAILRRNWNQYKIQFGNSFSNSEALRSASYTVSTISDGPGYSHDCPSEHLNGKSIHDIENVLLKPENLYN
# PROTOCOL: Displacement of [125I]-hCGRP from human CALCRL/RAMP1 expressed in HEK293 cell membranes
pKi: −log10 of the molar value.
QUANTITY_MEASURED: pKi

> print(dat)
                      smiles.representation  reading
1  C[C@H](c1ccccc1)N(CC#Cc1ccc2c(c1)C[C@@]1(C2)C(=O)Nc2ncccc21)C(=O)C(C)(C)C     9.09
2  C[C@H](c1ccccc1)N(C/C=C/c1cnc2c(c1)C[C@@]1(C2)C(=O)Nc2ncccc21)C(=O)C(C)(C)C     9.66
3  CC(C)(C)C(=O)N(CCCc1cnc2c(c1)C[C@@]1(C2)C(=O)Nc2ncccc21)[C@@H]1CCc2ccccc21     9.21
4  CC(C)(C)C(=O)N(CC#Cc1cnc2c(c1)C[C@@]1(C2)C(=O)Nc2ncccc21)[C@@H]1CCc2ccccc21    10.30
5  C[C@H](c1cc(F)cc(F)c1)N(C/C=C/c1ccc2c(c1)C[C@@]1(C2)C(=O)Nc2ncccc21)C(=O)[C@@H]1CCCN1C     8.47
6  CC(C)(C)C(=O)N(C/C=C/c1cnc2c(c1)C[C@@]1(C2)C(=O)Nc2ncccc21)C1CCCCCC1     9.05
7  CC(C)(C)C(=O)N(CCCc1ccc2c(c1)C[C@@]1(C2)C(=O)Nc2ncccc21)[C@@H]1CCc2ccccc21     8.69
